# Test system: MOLM14 cells
# TEST: Proliferation assay, spheroid-like growth, MOLM14 (MLL-AF9 rearranged)
# Assay type: cell-based, human
# EXPERIMENTAL_SETUP: Homo sapiens, MOLM-14, 192 h, 8 days, confluence as measure of spheroid size, read-out: spheroid assay_OneTime MOLM14 IC50
RECORDED_ENDPOINT: IC50 (nM)

Worked cases, answers included:
- COMPOUND: "CC(C)C([C@H]1C[C@H](N2C[C@H]3COC[C@H]3C2)C1)N1CC2(CCN(c3ncnnc3Oc3ccc(F)cc3-c3cncc(C#N)c3C3CC3)C2)C1 (some centres unmarked) [Compound 143]"
  REPORTED: 27
- COMPOUND: "CC(C)C([C@H]1C[C@@H](N2CC3(COC3)C2)C1)N1CC2(CCN(c3ncnnc3Oc3ccc(F)cc3-c3ncc(C#N)cc3C3CC3)C2)C1 (some centres unmarked) [Compound 140]"
  REPORTED: 42

A = CC(C)C([C@H]1C[C@@H](N2CCC3(CCO3)CC2)C1)N1CC2(CCN(c3ncnnc3Oc3ccc(F)cc3-c3cncnc3C3CC3)C2)C1 (some centres unmarked) [Compound 327]
B = CC(C)[C@@H]([C@H]1C[C@H](N2CC3(COC3)C2)C1)N1CC2(CCN(c3ncnnc3Oc3ccc(F)cc3-c3cnncc3C3CC3)C2)C1 (single isomer, unassigned) [Compound 107]
C = CC(C)C(C1CC(Nc2ncc3cn[nH]c3n2)C1)N1CC2(CCN(c3ncnnc3Oc3ccc(F)cc3-c3cncnc3C3CC3)C2)C1 (single isomer, unassigned) [Compound 411]
Rank order required: IC50, descending. Put the labels in the order asked and list them.
B, C, A

* * *

# Test system: MOLM14 cells
# TEST: Proliferation assay, spheroid-like growth, MOLM14 (MLL-AF9 rearranged)
# Format: cell-based, human
# EXPERIMENTAL_SETUP: Homo sapiens, MOLM-14, 192 h, 8 days, confluence as measure of spheroid size, read-out: spheroid assay_OneTime MOLM14 IC50
RECORDED_ENDPOINT: IC50 (nM)

- COMPOUND: "CC(C)[C@@H]([C@H]1C[C@@H](N2CC3(CCO3)C2)C1)N1CC2(CCN(c3ncnnc3Oc3ccc(F)cc3-c3cnncc3C3CC3)C2)C1 (single isomer, unassigned)"
  IC50, nM: 12

A = CC(C)[C@H]([C@H]1C[C@@H](N(C)CCC(=O)N(C)C)C1)N1CC2(CCN(c3ncnnc3Oc3ccc(F)cc3-c3cncnc3C3CC3)C2)C1 (single isomer, unassigned)
B = CCOC(=O)c1nnc(N[C@H]2C[C@@H](C(C(C)C)N3CC4(CCN(c5ncnnc5Oc5ccc(F)cc5-c5cncnc5C5CC5)C4)C3)C2)s1 (single isomer, unassigned)
Quick check, higher IC50 between A and B ? Pick one; state its label.
B

* * *

# TEST_TARGET: menin/MLL (terbium chelate-labeled menin, FITC-MBM1 peptide) (Homo sapiens, UniProt O00255, T541A)
# Construct: Menin (a.a 1-610-6xhis tag)
# Sequence (O00255 with tags, fused parts or gaps T541A): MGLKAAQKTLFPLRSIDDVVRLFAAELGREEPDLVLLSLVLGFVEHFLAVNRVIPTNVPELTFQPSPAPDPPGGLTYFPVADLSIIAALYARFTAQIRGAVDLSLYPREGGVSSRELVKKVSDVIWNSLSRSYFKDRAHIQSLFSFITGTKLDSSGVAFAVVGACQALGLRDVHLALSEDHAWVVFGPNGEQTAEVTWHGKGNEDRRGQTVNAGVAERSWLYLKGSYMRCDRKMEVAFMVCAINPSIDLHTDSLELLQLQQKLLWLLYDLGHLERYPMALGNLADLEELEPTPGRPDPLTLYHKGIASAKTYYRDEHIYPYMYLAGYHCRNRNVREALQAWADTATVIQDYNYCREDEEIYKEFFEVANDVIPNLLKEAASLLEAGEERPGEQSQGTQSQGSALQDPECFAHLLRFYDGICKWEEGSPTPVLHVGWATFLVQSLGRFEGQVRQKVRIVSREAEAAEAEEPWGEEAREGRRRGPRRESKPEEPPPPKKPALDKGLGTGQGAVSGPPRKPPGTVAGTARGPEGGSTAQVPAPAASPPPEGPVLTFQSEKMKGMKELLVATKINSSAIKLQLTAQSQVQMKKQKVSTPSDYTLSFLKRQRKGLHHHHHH
# TEST: Menin/MLL homogenous time-resolved fluorescence (HTRF) assay
# EXPERIMENTAL_SETUP: 30 min incubation
pIC50: −log10 of the molar value.
RECORDED_ENDPOINT: pIC50

- COMPOUND: "CNC(=O)c1ncc(N[C@H]2C[C@@H]([C@@H](C(C)C)N3CC4(CCN(c5ncnnc5Oc5ccc(F)cc5-c5cncnc5C5CC5)C4)C3)C2)s1 (single isomer, unassigned)"
  RECORDED_ENDPOINT: "pIC50"
  REPORTED: 10.05

P = CC(C)[C@H]([C@H]1C[C@@H](N2CC[C@]3(CCN(C)C3=O)C2)C1)N1CC2(CCN(c3ncnnc3Oc3ccc(F)cc3-c3cncnc3C3CC3)C2)C1 (single isomer, unassigned)
Q = CC(C)[C@H]([C@H]1C[C@H](N2CCC3(C2)CS(=O)(=O)C3)C1)N1CC2(CCN(c3ncnnc3Oc3ccc(F)cc3-c3cncnc3C3CC3)C2)C1 (single isomer, unassigned)
Sorting by pIC50 in descending order, would P or Q appear first? Your answer should be the label attached to the chosen record.
P
(P: 10.00, Q: 9.52)

* * *

# TEST_TARGET: menin/MLL (terbium chelate-labeled menin, FITC-MBM1 peptide) (Homo sapiens, UniProt O00255, T541A)
# Construct: Menin (a.a 1-610-6xhis tag)
# TEST: Menin/MLL homogenous time-resolved fluorescence (HTRF) assay
# EXPERIMENTAL_SETUP: 30 min incubation
pIC50: −log10 of the molar value.
RECORDED_ENDPOINT: pIC50

Field: example entries. Status: answers known.
- MOLECULE: "CC(C)[C@H]([C@H]1C[C@@H](Nc2cnc3nn[nH]c3c2)C1)N1CC2(CCN(c3ncnnc3Oc3ccc(F)cc3-c3cncnc3C3CC3)C2)C1 (single isomer, unassigned)"
  REPORTED: 9.27
- MOLECULE: "CC(C)[C@H]([C@H]1C[C@H](N2CC3(COC3)C2)C1)N1CC2(CCN(c3ncnnc3Oc3ccc(F)cc3-c3ncc(C#N)cc3C3CC3)C2)C1 (single isomer, unassigned)"
  REPORTED: 10.00
- MOLECULE: "Cc1ncc(-c2cc(F)ccc2Oc2nncnc2N2CCC3(C2)CN([C@@H](C(C)C)[C@H]2C[C@@H](N4CC[C@@H](NC(=O)C5CC5)C4)C2)C3)c(C2CC2)n1"
  REPORTED: 10.23
- MOLECULE: "CC(C)[C@@H]([C@H]1C[C@H](N2CC[C@@H](C(=O)N(C)C)C2)C1)N1CC2(CCN(c3ncnnc3Oc3ccc(F)cc3-c3cnncc3C3CC3)C2)C1 (single isomer, unassigned)"
  REPORTED: 9.70

A = CC(C)[C@H]([C@H]1C[C@@H](N2CCC[C@@H](F)C2)C1)N1CC2(CCN(c3ncnnc3Oc3ccc(F)cc3-c3cncnc3C3CC3)C2)C1 (single isomer, unassigned)
B = CC(C)[C@@H]([C@H]1C[C@@H](N2CCC3(CC2)COC3)C1)N1CC2(CCN(c3ncnnc3Oc3ccc(F)cc3-c3nnccc3C3CC3)C2)C1 (single isomer, unassigned)
C = CC(=O)N1CCN([C@H]2C[C@@H]([C@H](C(C)C)N3CC4(CCN(c5ncnnc5Oc5ccc(F)cc5-c5nnccc5C5CC5)C4)C3)C2)CC1 (single isomer, unassigned)
D = CS(=O)(=O)C1CCN([C@H]2C[C@@H]([C@@H](N3CC4(CCN(c5ncnnc5Oc5ccc(F)cc5-c5cncnc5C5CC5)C4)C3)C34CC(C3)C4)C2)CC1 (single isomer, unassigned)
Provide the items ranked by increasing pIC50. # the answer lists labels in the order requested
D, C, A, B
(D: 8.52, C: 9.05, A: 9.70, B: 10.00)

* * *

# Test system: KO-52 cells
# TEST: Proliferation assay, spheroid-like growth, KO-52 (MLL wildtype control cell line)
# Type: cell-based, human
# EXPERIMENTAL_SETUP: Homo sapiens, 192 h, KO-52 control cells, 8 days, confluence as measure of spheroid size; read-out: spheroid assay_OneTime KO-52 IC50
RECORDED_ENDPOINT: pIC50
# pIC50: negative log10 of molar concentration; output just the value

Examples with their reported pIC50 follow.
- COMPOUND: "COCC(=O)N[C@H]1C[C@@H]([C@@H](C(C)C)N2CC3(CCN(c4ncnnc4Oc4ccc(F)cc4-c4cncnc4C4CC4)C3)C2)C1 (single isomer, unassigned)"
  RECORDED_ENDPOINT: "pIC50"
  REPORTED: 5.08
- COMPOUND: "CC(=O)N1CC2(C1)CN([C@H]1C[C@@H]([C@H](C(C)C)N3CC4(CCN(c5ncnnc5Oc5ccc(F)cc5-c5ncc(C)cc5C5CC5)C4)C3)C1)C2 (single isomer, unassigned)"
  RECORDED_ENDPOINT: "pIC50"
  REPORTED: 5.27
- COMPOUND: "CC(C)[C@H]([C@H]1C[C@H](N2CC(O)C3(CC3)C2)C1)N1CC2(CCN(c3ncnnc3Oc3ccc(F)cc3-c3cncnc3C3CC3)C2)C1 (mixture of isomers)"
  RECORDED_ENDPOINT: "pIC50"
  REPORTED: 5.00
- COMPOUND: "CC(C)[C@H](C1CCN(C[C@H]2C[C@@](C)(O)C2)CC1)N1CC2(CCN(c3ncnnc3Oc3ccc(F)cc3-c3cccnc3C3CC3)C2)C1 (single isomer, unassigned)"
  RECORDED_ENDPOINT: "pIC50"
  REPORTED: 5.96
- COMPOUND: "CC(=O)N1CCN([C@H]2C[C@@H](C(C(C)C)N3CC4(CCN(c5ncnnc5Oc5ccc(F)cc5-c5cncc(C#N)c5C5CC5)C4)C3)C2)CC1 (some centres unmarked)"
  RECORDED_ENDPOINT: "pIC50"
  REPORTED: 4.91
- COMPOUND: "CC(C)C([C@H]1C[C@H](N2CC(O)C2)C1)N1CC2(CCN(c3ncnnc3Oc3ccc(F)cc3-c3cncnc3C3CC3)C2)C1 (some centres unmarked)"
  RECORDED_ENDPOINT: "pIC50"
  REPORTED: 4.83

Data point: CC(C)C([C@H]1C[C@@H](N2CCC3(COC3)C2)C1)N1CC2(CCN(c3ncnnc3Oc3ccc(F)cc3-c3cncnc3C3CC3)C2)C1 (some centres unmarked) ; pIC50 = 5.04

For CC(=O)N[C@H]1C[C@@H](C(C(C)C)N2CC3(CCN(c4ncnnc4Oc4ccc(F)cc4-c4ncncc4C4CC4)C3)C2)C1 (some centres unmarked) the compound record lists pIC50 as 4.90
